Entry source: patent US9273057B2

# pIC50 per entry
- TESTED TARGET: CK2A1 (CK2α/β) (Homo sapiens, UniProt P68400)
- Sequence (P68400 whole entry, species assumed): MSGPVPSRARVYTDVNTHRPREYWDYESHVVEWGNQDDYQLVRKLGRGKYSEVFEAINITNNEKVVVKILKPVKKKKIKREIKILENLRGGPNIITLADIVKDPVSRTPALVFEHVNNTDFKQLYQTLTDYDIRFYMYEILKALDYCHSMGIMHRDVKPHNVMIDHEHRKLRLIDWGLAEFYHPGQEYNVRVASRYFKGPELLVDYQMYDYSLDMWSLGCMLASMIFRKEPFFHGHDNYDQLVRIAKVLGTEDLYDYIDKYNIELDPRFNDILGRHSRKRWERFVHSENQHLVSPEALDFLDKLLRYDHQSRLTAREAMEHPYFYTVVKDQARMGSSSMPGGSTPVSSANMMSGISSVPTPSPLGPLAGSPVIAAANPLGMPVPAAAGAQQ
- Sequence (P67870 whole entry partner, species assumed): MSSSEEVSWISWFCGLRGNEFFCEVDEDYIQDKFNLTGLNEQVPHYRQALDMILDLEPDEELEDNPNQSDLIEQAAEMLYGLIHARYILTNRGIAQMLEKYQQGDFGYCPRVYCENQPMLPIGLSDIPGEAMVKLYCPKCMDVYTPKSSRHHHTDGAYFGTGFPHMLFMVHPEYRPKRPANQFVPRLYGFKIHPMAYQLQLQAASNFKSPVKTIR
- PROTOCOL: CK2 kinase assay, CK2A1 (CK2α/β)
- Format: biochemical
- ASSAY CONTEXT: Table A; read-out: CK2A1 (CK2α/β) (IC50)
Counter-ions that a name gives are not always drawn.
Please keep in mind that pIC50 is minus log10 of the molar concentration; only the number is needed.

Below: 6 molecules and their reported pIC50.
1) CCNc1nc(Nc2cc(C#N)cc(N3CC[C@@H](NC(=O)OC)[C@H](OC(=O)CNC(=O)[C@H](C)N)C3)c2Cl)nn2c(C#N)cnc12 [Example 821, hydrochloride] | 8.57
2) N#Cc1cc(Nc2nc(NC3CC3)c3ncc(C#N)n3n2)c(Cl)c(N2CCN([C@H]3C[C@@H](C#N)C3)CC2)c1 [Example 106] | 8.91
3) CC1(O)CCN(CC(O)c2cc(C#N)cc(Nc3nc(NC4CC4)c4ncc(C#N)n4n3)c2Cl)CC1 (stereo not shown) [Example 690] | 8.47
4) CC(C)(C)NCc1cc(C#N)cc(Nc2nc(NC3CC3)c3ncc(C#N)n3n2)c1Cl [Example 468] | 9.52
5) N#Cc1cc(Nc2nc(NC3CC3)c3ncc(C#N)n3n2)c(Cl)c(N2CCC(NC3CCOC3)CC2)c1 (racemic) [Example 112] | 8.59
6) N#Cc1cnc2c(NC3CC3)nc(Nc3cc(C(F)F)cc(NCC(O)CO)c3Cl)nn12 (stereo not shown) [Example 254] | 9.17

Lookup result for CC(C)(CO)NCc1cc(C#N)cc(Nc2nc(NC3CC3)c3ncc(C#N)n3n2)c1Cl [Example 674] ; measured pIC50: 8.76

Lookup result for CC(CO)N1CCN(c2cc(C#N)cc(Nc3nc(NC4CC4)c4ncc(C#N)n4n3)c2Cl)CC1 (racemic) [Example 54] ; measured pIC50: 8.79

Lookup result for CC(C)(C(N)=O)N1CC2(CCN(c3cc(C#N)cc(Nc4nc(NC5CC5)c5ncc(C#N)n5n4)c3Cl)CC2)C1 [Example 803] ; measured pIC50: 8.55

Lookup result for N#Cc1cnc2c(NC3CC3)nc(Nc3cc(C(F)F)cc(N4CCC(NC5COC5)CC4)c3Cl)nn12 [Example 256] ; measured pIC50: 9.12

Lookup result for CC1(O)CN([C@@H]2CCN(c3cc(C#N)cc(Nc4nc(NC5CC5)c5ncc(C#N)n5n4)c3Cl)C2)C1 [Example 47] ; measured pIC50: 8.76

Lookup result for N#Cc1cc(Nc2nc(NC3CC3)c3ncc(C#N)n3n2)c(Cl)c(N2CCN(C3CN(C(=O)C4CCC(O)CC4)C3)CC2)c1 (stereo not shown) [Example 512] ; measured pIC50: 8.24

====

# IC50 per entry
- TESTED TARGET: CK2A1 (CK2α/β) (Homo sapiens, UniProt P68400)
- PROTOCOL: CK2 kinase assay, CK2A1 (CK2α/β)
- Type: biochemical
- ASSAY CONTEXT: Table A; read-out: CK2A1 (CK2α/β) (IC50)
The reply should be a number in nM, with the unit left off.

Below: 5 compounds and their reported IC50.
1. CC(C)(O)[C@H](F)CNC1CCN(c2cc(C#N)cc(Nc3nc(NC4CC4)c4ncc(C#N)n4n3)c2Cl)CC1 | 3.06
2. CCNc1nc(Nc2ccc3c(c2)c(C#N)cn3C2CCN(C3CN(C(C)=O)C3)CC2)nn2c(C#N)cnc12 | 2.42
3. C[C@]1(N)CCN(c2cc(C#N)cc(Nc3nc(NC4CC4)c4ncc(C#N)n4n3)c2Cl)C[C@@H]1O | 0.32
4. CNC(=O)CN1CC2(CCN(c3cc(C#N)cc(Nc4nc(NC5CC5)c5ncc(C#N)n5n4)c3Cl)CC2)C1 | 2.46
5. CC(=O)NCC1(N2CCN(c3cc(C#N)cc(Nc4nc(NC5CC5)c5ncc(C#N)n5n4)c3Cl)CC2)COC1 | 6.02

Lookup result for "CC1(CN2CCC(c3cc(C#N)cc(Nc4nc(NC5CC5)c5ncc(C#N)n5n4)c3Cl)CC2)COC1" ; measured IC50: 2

Lookup result for "COC(=O)N[C@H]1CCN(c2cc(C#N)cc(Nc3nc(NC4CC4)c4ncc(C#N)n4n3)c2Cl)C[C@H]1N(C)CC#N" ; measured IC50: 6

Lookup result for "CCNc1nc(Nc2ccc3c(c2)c(C#N)cn3C2CCN(C3CN(C[C@H](C)O)C3)CC2)nn2c(C#N)cnc12" ; measured IC50: 0.6

Lookup result for "CC(C)(C(N)=O)N1CCC(c2cc(C#N)cc(Nc3nc(NC4CC4)c4ncc(C#N)n4n3)c2Cl)CC1" ; measured IC50: 4.01

Lookup result for "CCNc1nc(Nc2ccc3c(c2)c(C#N)cn3C2CCN([C@H]3CS(=O)(=O)C[C@@H]3O)CC2)nn2c(C#N)cnc12" ; measured IC50: 0.36

Lookup result for "CC1(C(=O)N2CCC(c3cc(C#N)cc(Nc4nc(NC5CC5)c5ncc(C#N)n5n4)c3Cl)CC2)COC1" ; measured IC50: 0.58

Lookup result for CC(O)(CO)c1cc(C#N)cc(Nc2nc(NC3CC3)c3ncc(C#N)n3n2)c1Cl (racemic) ; measured IC50: 0.32

Lookup result for "N#Cc1cnc2c(NC3CC3)nc(Nc3cc(C(F)F)cc(N4CC(N5CCOCC5)C4)c3Cl)nn12" ; measured IC50: 0.76

Lookup result for "CC1(O)CN(C2CCN(c3cc(C#N)cc(Nc4nc(NC5CC5)c5ncc(C#N)n5n4)c3Cl)CC2)C1" ; measured IC50: 0.68

====

- TESTED TARGET: CK2A1 (CK2α/β) (Homo sapiens, UniProt P68400)
- PROTOCOL: CK2 kinase assay, CK2A1 (CK2α/β)
- Type: biochemical
- ASSAY CONTEXT: Table A; read-out: CK2A1 (CK2α/β) (IC50)
METRIC: log10(IC50) (log10 of the value in nM)
Heads up, the numbers here are log10 of IC50 in nM units.

Below: 2 compounds and their reported log10(IC50).
1) CCNc1nc(Nc2cc(C#N)cc(CCCN3CCN(C)CC3)c2Cl)nn2c(C#N)cnc12 [Example 578] | 0.00
2) N#Cc1cc(Nc2nc(NC3CC3)c3ncc(C#N)n3n2)c(Cl)c(N2CCN(C3CN(C(=O)[C@@H]4C[C@@H](O)CN4)C3)CC2)c1 [Example 498] | 0.74

Record COC(=O)NCC1CN(c2cc(C#N)cc(Nc3nc(NC4CC4)c4ncc(C#N)n4n3)c2Cl)CCO1 (centres unmarked) [Example 710] / CK2A1 (CK2α/β) (Homo sapiens, UniProt P68400), log10(IC50) recorded as -0.12

Record CCNc1nc(Nc2cc(C#N)cc(N3CC[C@@H](NC(=O)OC)[C@H](OC(=O)[C@H](C)O)C3)c2Cl)nn2c(C#N)cnc12 [Example 341] / CK2A1 (CK2α/β) (Homo sapiens, UniProt P68400), log10(IC50) recorded as 0.00

Record N#Cc1cc(Nc2nc(NC3CC3)c3ncc(C#N)n3n2)c(Cl)c(OC2CNCCOC2)c1 (racemic) [Example 440] / CK2A1 (CK2α/β) (Homo sapiens, UniProt P68400), log10(IC50) recorded as -0.06

Record CN1CCN(c2cc(C#N)cc(Nc3nc(NC4CC4)c4ncc(C#N)n4n3)c2)C(=O)C1 [Example 629] / CK2A1 (CK2α/β) (Homo sapiens, UniProt P68400), log10(IC50) recorded as 0.78

Record COC(=O)N[C@H]1CN(c2cc(C#N)cc(Nc3nc(NC4CC4)c4ncc(C#N)n4n3)c2Cl)C[C@H]1CF [Example 287] / CK2A1 (CK2α/β) (Homo sapiens, UniProt P68400), log10(IC50) recorded as 0.07

Record CN(CCN)c1cc(Cl)c(Nc2nc(NC3CC3)c3ncc(C#N)n3n2)cc1C#N [Example 412] / CK2A1 (CK2α/β) (Homo sapiens, UniProt P68400), log10(IC50) recorded as -0.37

Record N#Cc1cc(Nc2nc(NC3CC3)c3ncc(C#N)n3n2)c(Cl)c(N2CCN(CC(=O)NS(=O)(=O)C3CC3)CC2)c1 [Example 599] / CK2A1 (CK2α/β) (Homo sapiens, UniProt P68400), log10(IC50) recorded as -0.40

Record N#Cc1cc(Nc2nc(NC3CC3)c3ncc(C#N)n3n2)c(Cl)c(C2CCN(C3CCN(C4CC4)CC3)CC2)c1 [Example 213] / CK2A1 (CK2α/β) (Homo sapiens, UniProt P68400), log10(IC50) recorded as 0.60

====

- TESTED TARGET: CK2A1 (CK2α/β) (Homo sapiens, UniProt P68400)
- PROTOCOL: CK2 kinase assay, CK2A1 (CK2α/β)
- Format: biochemical
- ASSAY CONTEXT: Table A; read-out: CK2A1 (CK2α/β) (IC50)
# IC50 per entry
The reply should be a number in nM, with the unit left off.

Below: 3 molecules and their reported IC50.
1) COC(=O)N[C@H]1CCN(c2cc(C#N)cc(Nc3nc(NC4CC4)c4ncc(C#N)n4n3)c2Cl)C[C@@H]1NCC(F)F [Example 748] | 1.4
2) N#Cc1cc(Nc2nc(NC3CC3)c3ncc(C#N)n3n2)c(Cl)c(N2CCN(CC(N)=O)CC2)c1 [Example 600] | 0.53
3) CN1CCC(c2cc(C#N)cc(Nc3nc(NC4CC4)c4ncc(C#N)n4n3)c2Cl)CC1 [Example 209] | 0.56

Record N#Cc1cc(Nc2nc(NC3CC3)c3ncc(C#N)n3n2)c(Cl)c(N2CCN(CCO)CC2=O)c1 [Example 634] / CK2A1 (CK2α/β) (Homo sapiens, UniProt P68400), IC50 recorded as 3

Record CC(=O)N1CCOC(c2cc(C#N)cc(Nc3nc(NC4CC4)c4ncc(C#N)n4n3)c2Cl)C1 (racemic) [Example 695] / CK2A1 (CK2α/β) (Homo sapiens, UniProt P68400), IC50 recorded as 3.7

Record N#Cc1cc(Nc2nc(NC3CC3)c3ncc(C#N)n3n2)c(Cl)c(N2CCN(C3CN(C(=O)CCn4ccnc4)C3)CC2)c1 [Example 496] / CK2A1 (CK2α/β) (Homo sapiens, UniProt P68400), IC50 recorded as 1.82

Record CC(O)CNC1CCN(c2cc(C#N)cc(Nc3nc(NC4CC4)c4ncc(C#N)n4n3)c2Cl)CC1 (racemic) [Example 138] / CK2A1 (CK2α/β) (Homo sapiens, UniProt P68400), IC50 recorded as 0.64
